molecular target: Polyphenol oxidase 1 (Agaricus bisporus, UniProt Q00024); assay: Inhibition Assay: Reader: Synergy HT program: tyrosinase 280-490 kinetics: kinetics over 45 minutes, reading at t=10 minutes, Tests in transparent 96-well plates, Phosphate buffer (pH 6.8), Enzyme: mushroom tyrosinase (T-3824, Sigma), Substrate: L-tyrosine (T-3754, Sigma), Positive control: Kojic acid (KA) (60890, Fluka) (reference inhibitor). Reference Molecules for the Test: Kojic acid: …
Sequence (Q00024 whole entry): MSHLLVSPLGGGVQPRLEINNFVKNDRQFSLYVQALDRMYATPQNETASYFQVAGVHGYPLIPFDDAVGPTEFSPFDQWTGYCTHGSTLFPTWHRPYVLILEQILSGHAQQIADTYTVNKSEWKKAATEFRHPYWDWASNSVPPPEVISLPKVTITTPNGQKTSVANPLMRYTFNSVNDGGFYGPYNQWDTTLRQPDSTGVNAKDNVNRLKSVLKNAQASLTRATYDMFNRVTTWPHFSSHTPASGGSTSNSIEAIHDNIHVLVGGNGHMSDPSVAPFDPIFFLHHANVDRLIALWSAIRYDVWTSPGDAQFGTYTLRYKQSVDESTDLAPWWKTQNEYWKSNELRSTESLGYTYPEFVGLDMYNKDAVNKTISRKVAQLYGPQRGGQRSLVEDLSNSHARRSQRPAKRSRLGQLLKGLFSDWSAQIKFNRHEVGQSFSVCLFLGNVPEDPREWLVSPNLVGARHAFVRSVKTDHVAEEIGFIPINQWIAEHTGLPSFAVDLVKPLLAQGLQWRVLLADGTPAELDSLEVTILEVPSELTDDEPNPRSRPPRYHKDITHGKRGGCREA
test-readout: IC50 (nM)
Please reply with the bare figure in nM and do not write the unit itself.

Look over these answered cases.
CC(c1cccnc1)c1ccc(O)cc1O (stereo unspecified) : 200
CC(c1cccs1)c1ccc(O)cc1O (stereo unspecified) : 90
CC(c1ccccn1)c1ccc(O)cc1O (stereo unspecified) : 400
CC(c1nccs1)c1ccc(O)cc1O (stereo unspecified) : 1500
CC(c1ccsc1)c1ccc(O)cc1O (stereo unspecified) : 80

Consider the additional compound presented here.
Summary for this compound, `CCCCc1ccc(O)cc1O` : IC50 is 1000
